Tested on: EKVX
Test Summary: NCI tumour cell line growth inhibition, 48 h
Activity calls are given as the source filed them. Cut-off read from the data, not from the text of the source: active = GI50 up to about 1.1 µM and inactive = higher.
Outcomes: true for active, false for inactive

- Compound: "N#CCCN(CCC#N)c1ccc(/C=C2\\N=C(c3ccccc3)N(NC(=O)c3ccncc3)C2=O)cc1"
  Class Label: "false"
- Compound: "COc1cc2c(c(OC)c1OC)-c1ccc(SC)c(=O)cc1[C@@H](NCc1ccc([N+](=O)[O-])cc1)CC2"
  Class Label: "true"
- Compound: "N#CC1CCCCCCCCCCC(=O)N(CCCl)C1=O (centres undefined)"
  Class Label: "false"
- Compound: "OCCC/N=C1N=C(Cl)/C(=C\\c2ccccc2)N\\1"
  Class Label: "false"
- Compound: "O=C1C[C@H](Sc2ccccc2)C2(OCCO2)[C@@H](Sc2ccccc2)C1"
  Class Label: "false"
- Compound: "C=C(C)[C@@H]1CC[C@]2(C)CC[C@]3(C)[C@H](CC[C@@H]4[C@@]5(C)CC[C@H](O)C(C)(C)[C@@H]5CC[C@]43C)[C@@H]12 [LUPEOL]"
  Class Label: "false"
- Compound: "COc1cc(C(=O)C/C(CCC(=O)Nc2ccc(Cl)cc2Cl)=N/Nc2nnc(C)n2N)ccc1O"
  Class Label: "false"
- Compound: "CCOC(C)C(/C=N/NC(N)=S)=NNC(N)=S (centres undefined) [GLOXAZONE]"
  Class Label: "true"
- Compound: "Cn1cnc([N+](=O)[O-])c1Sc1nnc(C(F)(F)F)n1C"
  Class Label: "false"
